Source of measurements: patent US9949995B2

target: VIM-24 (Escherichia coli, UniProt Q5U7L7, R205L); experiment: IC50 assay, nitrocefin hydrolysis, VIM-24 (MBL)
reported endpoint: IC50

compound=O=C(Cc1ccccc1)NCc1cn(CB(O)O)nn1 reported_endpoint=IC50 result="> 100 µM"
compound=Cc1ccc(S(=O)(=O)NCc2cn(CB(O)O)nn2)cc1 reported_endpoint=IC50 result="> 100 µM"
compound=O=C(NCc1cn(CB(O)O)nn1)Nc1ccccc1 reported_endpoint=IC50 result="> 100 µM"
compound=O=C(NCc1cn(CB(O)O)nn1)c1ccccc1 reported_endpoint=IC50 result="> 100 µM"

---

biological target: ADC-7 (Acinetobacter baumannii, UniProt Q6DRA1); assay: IC50 assay, nitrocefin hydrolysis, ADC-7 (SBL); type: biochemical; details: nitrocefin 50 μM, 5 min pre-incubation at 25° C.; 10 mM phosphate-buffered saline, pH 7.4
# key: entry, value: IC50
reported endpoint: IC50 (µM)

compound="O=C(Cc1ccccc1)NCc1cn(CB(O)O)nn1 [Cmp 1d]" number=39
compound="Cc1ccc(S(=O)(=O)NCc2cn(CB(O)O)nn2)cc1 [Cmp 1a]" number=24
compound="O=C(NCc1cn(CB(O)O)nn1)Nc1ccccc1 [Cmp 1e]" number=14
compound="O=C(NCc1cn(CB(O)O)nn1)c1ccccc1 [Cmp 1c]" number=23
